molecular target: ABL1-phosphorylated (Homo sapiens); construct: purchased Eurofins DiscoverX KINOMEscan (scanTK); assay: KINOMEscan ScanTK; assay type: binding; conditions: @1000nM, read-out: %Control
Sequence (P00519 whole entry): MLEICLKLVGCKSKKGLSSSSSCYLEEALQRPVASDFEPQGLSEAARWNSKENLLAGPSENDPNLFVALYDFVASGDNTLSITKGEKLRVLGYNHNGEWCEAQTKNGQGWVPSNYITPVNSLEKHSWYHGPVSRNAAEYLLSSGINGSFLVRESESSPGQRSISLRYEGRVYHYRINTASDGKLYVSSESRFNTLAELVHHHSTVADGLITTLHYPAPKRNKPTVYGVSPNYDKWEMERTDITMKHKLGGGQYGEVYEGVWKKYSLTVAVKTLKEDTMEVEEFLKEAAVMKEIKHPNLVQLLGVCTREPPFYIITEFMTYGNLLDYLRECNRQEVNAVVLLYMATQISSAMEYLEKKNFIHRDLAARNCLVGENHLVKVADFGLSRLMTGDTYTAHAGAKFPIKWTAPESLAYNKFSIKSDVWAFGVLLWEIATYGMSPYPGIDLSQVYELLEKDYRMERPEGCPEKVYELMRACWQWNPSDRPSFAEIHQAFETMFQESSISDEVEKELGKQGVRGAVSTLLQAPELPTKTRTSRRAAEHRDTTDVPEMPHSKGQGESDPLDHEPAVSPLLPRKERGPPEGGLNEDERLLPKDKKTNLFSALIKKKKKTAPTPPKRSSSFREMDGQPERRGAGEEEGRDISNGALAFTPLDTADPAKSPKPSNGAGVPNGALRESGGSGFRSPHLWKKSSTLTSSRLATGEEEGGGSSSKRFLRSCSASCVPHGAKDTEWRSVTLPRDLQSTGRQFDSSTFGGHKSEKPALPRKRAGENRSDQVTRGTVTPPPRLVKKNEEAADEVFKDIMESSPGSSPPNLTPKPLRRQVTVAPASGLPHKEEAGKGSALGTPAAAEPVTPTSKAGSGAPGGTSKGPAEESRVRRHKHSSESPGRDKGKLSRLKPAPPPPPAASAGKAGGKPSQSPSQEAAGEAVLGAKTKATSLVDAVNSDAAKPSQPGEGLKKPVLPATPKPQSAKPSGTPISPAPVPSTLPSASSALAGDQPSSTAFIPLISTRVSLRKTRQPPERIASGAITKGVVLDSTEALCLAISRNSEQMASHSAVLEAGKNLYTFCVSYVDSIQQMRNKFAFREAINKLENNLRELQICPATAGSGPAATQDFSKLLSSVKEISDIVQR
ASSAY ENDPOINT: remaining binding at 1 µM
The reply must contain the numeric value and, after it, the unit.

Q: Lab note: need remaining binding at 1 µM with ABL1-phosphorylated (Homo sapiens) for entry CNC(=O)c1cnc(S(C)(=O)=O)nc1N1CCCC(n2nc(-c3ccc(Oc4ccccc4)cc3)c3c(N)ncnc32)C1 (centres unmarked) , please look it up.
A: 55%

Q: Lab note: need remaining binding at 1 µM with ABL1-phosphorylated (Homo sapiens) for entry Cc1cnc(S(C)(=O)=O)nc1N1CCCC(n2nc(-c3ccc(Oc4ccccc4)cc3)c3c(N)ncnc32)C1 (centres unmarked) , please look it up.
A: 80%

Q: Lab note: need remaining binding at 1 µM with ABL1-phosphorylated (Homo sapiens) for entry C=CC(=O)N1CCC[C@@H](n2nc(-c3ccc(Oc4ccccc4)cc3)c3c(N)ncnc32)C1 [Compound 1g, Ibrutinib, reference compound] , please look it up.
A: 60%

***
Q: Lab note: need remaining binding at 1 µM with ABL1-phosphorylated (Homo sapiens) for entry COC(=O)c1cnc(S(C)(=O)=O)nc1N1CCCC(n2nc(-c3ccc(Oc4ccccc4)cc3)c3c(N)ncnc32)C1 (centres unmarked) , please look it up.
A: 79%

Q: Lab note: need remaining binding at 1 µM with ABL1-phosphorylated (Homo sapiens) for entry `CCOC(=O)c1cnc(S(C)(=O)=O)nc1N1CCC[C@@H](n2nc(-c3ccc(Oc4ccccc4)cc3)c3c(N)ncnc32)C1` , please look it up.
A: 57%

----------
Target protein (sequence): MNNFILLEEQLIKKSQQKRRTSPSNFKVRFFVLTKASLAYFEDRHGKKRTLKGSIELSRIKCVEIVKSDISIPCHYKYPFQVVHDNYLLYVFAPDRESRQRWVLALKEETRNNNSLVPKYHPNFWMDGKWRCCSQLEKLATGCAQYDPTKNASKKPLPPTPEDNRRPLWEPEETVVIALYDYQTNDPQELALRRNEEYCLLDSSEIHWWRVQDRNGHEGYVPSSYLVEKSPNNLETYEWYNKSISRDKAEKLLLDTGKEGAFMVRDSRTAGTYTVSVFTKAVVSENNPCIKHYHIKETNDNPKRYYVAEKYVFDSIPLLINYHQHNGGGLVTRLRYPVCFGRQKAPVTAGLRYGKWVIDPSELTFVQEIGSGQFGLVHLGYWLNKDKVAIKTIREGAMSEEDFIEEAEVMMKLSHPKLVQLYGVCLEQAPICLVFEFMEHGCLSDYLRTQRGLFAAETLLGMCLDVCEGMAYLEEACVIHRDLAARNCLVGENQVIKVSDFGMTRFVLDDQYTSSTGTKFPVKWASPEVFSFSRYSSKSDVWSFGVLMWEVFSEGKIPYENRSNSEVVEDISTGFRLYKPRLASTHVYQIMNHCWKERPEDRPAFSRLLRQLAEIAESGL
ASSAY ENDPOINT: IC50

Q: Would you mind telling me what IC50 value was observed for COC(=O)c1cnc(S(C)(=O)=O)nc1N1CCCC(n2nc(-c3ccc(Oc4ccccc4)cc3)c3c(N)ncnc32)C1 (centres unmarked) [Compound 8b] ?
A: > 1000 nM

Q: Would you mind telling me what IC50 value was observed for CNC(=O)c1cnc(S(C)(=O)=O)nc1N1CCCC(n2nc(-c3ccc(Oc4ccccc4)cc3)c3c(N)ncnc32)C1 (centres unmarked) [Compound 8d] ?
A: > 1000 nM
